For each entry below, report its inhibition value.
# experimental_target: UniProt:Q96EB6
# measurement_protocol: Inhibition of GST-tagged human SIRT1 (133 to 747 amino acids) using ZMAL as substrate at 200 uM after 4 hrs by fluorescence-based microplate reader method

Past entries and their recorded results:
Cc1cc(C)nc(SCC(=O)Nc2nnc(Cc3ccccc3)s2)n1: < 10%
CCOc1cccc(Cc2cnc(NC(=O)CSc3nc(C)cc(C)n3)s2)c1: < 10%
CCc1cc(CC)nc(SCC(=O)Nc2ncc(Cc3cccc4ccccc34)s2)n1: < 10%
CCc1cc(CC)nc(SCC(=O)Nc2ncc(Cc3cccc(C)c3)s2)n1: < 10%

API: the following record is the query input.
Request the reported inhibition associated with Cc1cc(C)nc(SC(C)C(=O)Nc2ncc(Cc3ccc(-c4ccccc4)cc3)s2)n1 (racemic) 14%

====

# experimental_target: UniProtKB Q8IXJ6
# Sequence (Q8IXJ6 whole entry): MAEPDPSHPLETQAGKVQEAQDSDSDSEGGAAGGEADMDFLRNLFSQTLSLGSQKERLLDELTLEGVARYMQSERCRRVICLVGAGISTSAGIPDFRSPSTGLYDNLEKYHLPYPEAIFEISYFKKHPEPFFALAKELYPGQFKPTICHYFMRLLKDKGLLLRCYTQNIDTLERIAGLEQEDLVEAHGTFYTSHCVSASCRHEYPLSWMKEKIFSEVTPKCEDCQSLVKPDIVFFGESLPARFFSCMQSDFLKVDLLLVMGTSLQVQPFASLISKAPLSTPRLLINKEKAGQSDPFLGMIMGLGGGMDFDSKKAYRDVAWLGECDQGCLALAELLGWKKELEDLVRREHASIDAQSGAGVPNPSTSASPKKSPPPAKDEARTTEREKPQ
# measurement_protocol: Inhibition of N-terminal his6-tagged human SIRT2 (25 to 389 amino acids) using ZMAL as substrate after 4 hrs by fluorescence-based microplate reader method
pIC50: −log10 of the molar value.
Record Yes whenever pIC50 is at 5 or higher; record No when lower.

API: above_or_equal(metric=pIC50, cutoff=5) for item "Cc1cc(C)cc(SCC(=O)Nc2ncc(Cc3cccc4ccccc34)s2)c1" No

API: above_or_equal(metric=pIC50, cutoff=5) for item "Cc1cc(C)nc(SCC(=O)Nc2nnc(Cc3cccc4ccccc34)s2)n1" Yes

API: above_or_equal(metric=pIC50, cutoff=5) for item "Cc1ccnc(SCC(=O)Nc2ncc(Cc3cccc4ccccc34)s2)n1" Yes

API: above_or_equal(metric=pIC50, cutoff=5) for item "O=C(CSc1nnc(-c2ccccc2)c(-c2ccccc2)n1)Nc1nnc(-c2ccccc2)s1" No

API: above_or_equal(metric=pIC50, cutoff=5) for item "Cc1cc(C)nc(SCC(=O)Nc2nnc(Cc3ccc(Cl)cc3)s2)n1" No

API: above_or_equal(metric=pIC50, cutoff=5) for item Cc1cc(C)nc(SC(C)C(=O)Nc2ncc(Cc3ccc(-c4ccccc4)cc3)s2)n1 (racemic) No

API: above_or_equal(metric=pIC50, cutoff=5) for item "CCc1cc(CC)nc(SCC(=O)Nc2ncc(Cc3cccc4ccccc34)s2)n1" No

API: above_or_equal(metric=pIC50, cutoff=5) for item "Cc1cc(C)nc(SCC(=O)Nc2ncc(Cc3cccc4cc(Cl)ccc34)s2)n1" Yes

API: above_or_equal(metric=pIC50, cutoff=5) for item COc1ccc(Cc2cnc(NC(=O)C(C)Sc3nc(C)cc(C)n3)s2)cc1 (racemic) No

API: above_or_equal(metric=pIC50, cutoff=5) for item "Cc1cc(C)nc(SCC(=O)Nc2ncc(C(=O)Nc3cccc4ccccc34)s2)n1" No

====

# experimental_target: UniProtKB Q96EB6
# Sequence (whole entry): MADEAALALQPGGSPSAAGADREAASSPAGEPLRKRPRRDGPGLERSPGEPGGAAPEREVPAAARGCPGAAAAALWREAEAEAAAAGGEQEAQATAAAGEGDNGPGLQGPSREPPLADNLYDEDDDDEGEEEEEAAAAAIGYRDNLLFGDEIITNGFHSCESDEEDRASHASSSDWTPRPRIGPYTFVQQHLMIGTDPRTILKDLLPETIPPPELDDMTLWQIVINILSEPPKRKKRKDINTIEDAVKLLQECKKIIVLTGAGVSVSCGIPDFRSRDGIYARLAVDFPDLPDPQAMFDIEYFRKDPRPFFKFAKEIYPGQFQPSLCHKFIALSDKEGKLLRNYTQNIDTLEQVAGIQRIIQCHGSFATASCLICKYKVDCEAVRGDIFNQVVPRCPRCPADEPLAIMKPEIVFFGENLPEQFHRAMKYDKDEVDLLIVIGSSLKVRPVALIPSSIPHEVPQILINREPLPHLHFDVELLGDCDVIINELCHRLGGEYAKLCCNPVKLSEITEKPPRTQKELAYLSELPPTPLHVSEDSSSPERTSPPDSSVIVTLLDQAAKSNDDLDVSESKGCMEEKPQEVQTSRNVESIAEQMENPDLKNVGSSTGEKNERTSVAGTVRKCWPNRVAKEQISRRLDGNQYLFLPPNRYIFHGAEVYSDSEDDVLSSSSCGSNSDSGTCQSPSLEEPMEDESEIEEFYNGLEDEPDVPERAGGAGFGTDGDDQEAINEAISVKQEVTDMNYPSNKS
# measurement_protocol: Inhibition of GST-tagged human SIRT1 (133 to 747 amino acids) using ZMAL as substrate at 200 uM after 4 hrs by fluorescence-based microplate reader method
experimental_endpoint: inhibition

Past entries and their recorded results:
Cc1cc(C)nc(SCC(=O)Nc2ncc(Cc3cccc4ccc(Br)cc34)s2)n1: < 10%
Cc1cc(C)nc(SCC(=O)Nc2ncc(C)s2)n1: < 10%
Cc1ccnc(SCC(=O)Nc2ncc(Cc3cccc4ccccc34)s2)n1: < 10%
Cc1cc(C)cc(SCC(=O)Nc2ncc(Cc3cccc4ccccc34)s2)c1: 16%
O=C(CSc1ncccn1)Nc1ncc(Cc2ccccc2)s1: 12%

Below is a list of compounds. For each, state its recorded inhibition.
1. O=C(CSc1cccc(O)c1)Nc1ncc(Cc2cccc3ccccc23)s1
2. NC(=O)c1ccc[n+](CC(=O)Nc2ncc(Cc3cccc4ccccc34)s2)c1
3. Nc1cc(N)nc(SCC(=O)Nc2ncc(Cc3cccc4ccccc34)s2)n1
4. Cc1cc(C)nc(SCC(=O)Nc2ncc(Cc3cccc4cc(Cl)ccc34)s2)n1

["< 10%", "39%", "< 10%", "20%"]

Below is a list of compounds. For each, state its recorded inhibition.
1. Cc1ccccc1Cc1cnc(NC(=O)CSc2ncccn2)s1
2. CCc1cc(CC)nc(SCC(=O)Nc2ncc(Cc3ccc(OC)cc3)s2)n1

11%
17%

====

# experimental_target: NAD-dependent protein deacetylase sirtuin-2 (Homo sapiens) (UniProt Q8IXJ6)
# Sequence (whole entry): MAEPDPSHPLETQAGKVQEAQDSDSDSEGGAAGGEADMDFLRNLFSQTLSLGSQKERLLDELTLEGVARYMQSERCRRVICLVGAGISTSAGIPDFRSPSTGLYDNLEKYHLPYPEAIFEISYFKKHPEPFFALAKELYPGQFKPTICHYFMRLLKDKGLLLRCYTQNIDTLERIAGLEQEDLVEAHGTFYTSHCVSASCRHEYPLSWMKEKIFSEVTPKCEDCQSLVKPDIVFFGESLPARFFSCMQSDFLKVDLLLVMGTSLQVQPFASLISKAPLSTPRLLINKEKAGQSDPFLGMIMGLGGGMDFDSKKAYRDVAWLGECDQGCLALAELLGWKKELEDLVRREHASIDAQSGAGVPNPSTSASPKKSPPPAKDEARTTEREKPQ
# measurement_protocol: Inhibition of N-terminal his6-tagged human SIRT2 (25 to 389 amino acids) using ZMAL as substrate at 50 uM after 4 hrs by fluorescence-based microplate reader method
experimental_endpoint: inhibition

Past entries and their recorded results:
O=C(CSc1nc(-c2ccccc2)cc(-c2ccccc2)n1)Nc1ncc(Cc2ccc(Cl)cc2)s1: 46%
O=C(CSc1ccc(Cl)cc1)Nc1ncc(Cc2cccc3ccccc23)s1: < 10%
Cc1cc(C)nc(SCC(=O)Nc2nnc(C)s2)n1: < 10%
Cc1cc(C)nc(SCC(=O)Nc2ncc(Cc3ccccc3C)s2)n1: 52%

API: the following record is the query input.
Request the reported inhibition associated with "CCc1cc(CC)nc(SCC(=O)Nc2ncc(Cc3ccc(Cl)cc3)s2)n1" 38%

====

# experimental_target: NAD-dependent protein deacetylase sirtuin-1 (Homo sapiens)
# Sequence (whole entry): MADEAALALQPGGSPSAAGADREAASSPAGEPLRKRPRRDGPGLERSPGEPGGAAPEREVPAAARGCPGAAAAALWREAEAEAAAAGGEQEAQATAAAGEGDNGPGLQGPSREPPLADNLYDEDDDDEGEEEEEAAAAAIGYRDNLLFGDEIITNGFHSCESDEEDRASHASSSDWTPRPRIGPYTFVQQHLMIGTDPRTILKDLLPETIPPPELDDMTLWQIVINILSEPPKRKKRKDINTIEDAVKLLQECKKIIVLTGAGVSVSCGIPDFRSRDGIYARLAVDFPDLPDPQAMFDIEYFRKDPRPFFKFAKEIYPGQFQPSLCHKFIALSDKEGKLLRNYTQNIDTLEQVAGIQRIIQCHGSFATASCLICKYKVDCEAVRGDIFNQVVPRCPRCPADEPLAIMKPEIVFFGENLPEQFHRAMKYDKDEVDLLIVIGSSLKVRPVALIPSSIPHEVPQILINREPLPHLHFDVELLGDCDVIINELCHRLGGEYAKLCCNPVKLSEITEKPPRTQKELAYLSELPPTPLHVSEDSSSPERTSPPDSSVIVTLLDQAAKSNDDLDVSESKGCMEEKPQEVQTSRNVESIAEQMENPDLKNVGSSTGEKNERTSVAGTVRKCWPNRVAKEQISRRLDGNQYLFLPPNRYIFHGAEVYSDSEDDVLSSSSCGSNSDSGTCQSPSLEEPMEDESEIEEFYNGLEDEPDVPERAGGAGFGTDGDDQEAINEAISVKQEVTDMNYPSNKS
# measurement_protocol: Inhibition of GST-tagged human SIRT1 (133 to 747 amino acids) using ZMAL as substrate at 200 uM after 4 hrs by fluorescence-based microplate reader method
experimental_endpoint: inhibition

Cc1cc(C)nc(SCC(=O)Nc2nnc(Cc3ccc(Cl)cc3)s2)n1: < 10%
Nc1ccccc1SCC(=O)Nc1ncc(Cc2cccc3ccccc23)s1: < 10%
Cc1cc(C)nc(SCC(=O)Nc2ncc(Cc3ccc(Cl)cc3)s2)n1: < 10%
Cc1cc(C)nc(SCC(N)=O)n1: < 10%
O=C(CSc1nnc(-c2ccccc2)c(-c2ccccc2)n1)Nc1nnc(-c2ccccc2)s1: < 10%

Below is a list of compounds. For each, state its recorded inhibition.
1. Cc1nc(SCC(=O)Nc2ncc(Cc3cccc4ccccc34)s2)nc(C)c1C
2. Cc1cc(C)nc(SCC(=O)Nc2ncc(Cc3ccc4ccccc4c3)s2)n1
3. CCC(Sc1nc(C)cc(C)n1)C(=O)Nc1ncc(Cc2cccc3ccc(Cl)cc23)s1 (racemic)

1. < 10%
2. < 10%
3. < 10%

Below is a list of compounds. For each, state its recorded inhibition.
1. Cc1cc(C)nc(S[C@H](C)C(=O)Nc2ncc(Cc3cccc4ccccc34)s2)n1
2. Cc1cc(C)nc(SCC(=O)Nc2nnc(Cc3cccc4ccccc34)s2)n1

1. < 10%
2. < 10%

Below is a list of compounds. For each, state its recorded inhibition.
1. Cc1cc(C)nc(SC(C)C(=O)Nc2ncc(Cc3cccc4ccc(Cl)cc34)s2)n1 (racemic)
2. CC(=O)Nc1ncc(C)s1

1. < 10%
2. < 10%

Hey, just so you know, these numbers are from ChEMBL document CHEMBL3769317.
